- test-target: HRgpA-6H (Porphyromonas gingivalis) (UniProt P28784)
- protocol-text: ELISA, FASEBA Fab on coated HRgpA-6H
parameter: OD450nm
I'd appreciate a reply containing only the number, no unit.

Example cases with answers are listed next.
{"binder": "KB001 mouse Fab VL A25E (Fab, V domains shown) VH: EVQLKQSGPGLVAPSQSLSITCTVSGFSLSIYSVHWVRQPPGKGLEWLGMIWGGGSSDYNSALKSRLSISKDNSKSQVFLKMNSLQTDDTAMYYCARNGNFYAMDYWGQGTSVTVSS VL: QIVLTQSPAIMSASLGERVTMTCTESSSVSSSFLHWYQQKPGSSPQLWIYSTSNLASGVPARFSGSGSGTSYSLTISSMEAEDAATYYCHQYHHSPYIYTFGGGTKLEIK", "parameter": "OD450nm", "measured-number": 0.655}
{"binder": "KB001 mouse Fab VL T52L (Fab, V domains shown) VH: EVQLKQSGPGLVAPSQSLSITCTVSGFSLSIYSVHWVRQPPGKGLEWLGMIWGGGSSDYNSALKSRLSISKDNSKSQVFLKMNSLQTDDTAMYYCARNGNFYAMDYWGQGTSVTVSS VL: QIVLTQSPAIMSASLGERVTMTCTASSSVSSSFLHWYQQKPGSSPQLWIYSLSNLASGVPARFSGSGSGTSYSLTISSMEAEDAATYYCHQYHHSPYIYTFGGGTKLEIK", "parameter": "OD450nm", "measured-number": 0.769}

Now for a further binder.
Reported OD450nm for KB001 mouse Fab VL S53R (Fab, V domains shown) VH: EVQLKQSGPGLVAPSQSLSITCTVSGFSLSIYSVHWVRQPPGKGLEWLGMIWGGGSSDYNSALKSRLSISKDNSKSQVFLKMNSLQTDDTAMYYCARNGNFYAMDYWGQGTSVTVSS VL: QIVLTQSPAIMSASLGERVTMTCTASSSVSSSFLHWYQQKPGSSPQLWIYSTRNLASGVPARFSGSGSGTSYSLTISSMEAEDAATYYCHQYHHSPYIYTFGGGTKLEIK : what is it?
0.637
